Organism: Homo sapiens
Assay: Compound tested for ability to bind to human plasma protein
Assay type: cell-free
Measured Property: Binding (%)
Value expressed in %; do not type the unit.

These recorded examples may help you get a feel for the data.
O=c1cc(-c2ccc3c(c2)ncn3-c2ccccc2)ccn1CCCN1CCCCC1 : 80.7
c1ccc(-n2cnc3cc(-c4ccc(OCCN5CCCCC5)cc4)cnc32)cc1 : 97.4
c1ccc(-n2cnc3cc(-c4ccc(OCCN5CCCCC5)cc4)ccc32)cc1 : 99.4

Next up:
Given item `O=c1ccc(-c2ccc3c(c2)ncn3-c2ccccc2)cn1CCN1CCCCC1` , the value recorded as its Binding is 85

###

Assay: CL (clearance) of compound was determined as average of four rats at each dose of 5 mg/kg intravenous and 16 mg/kg peroral administration
Assay type: ADME, organism-based
Conditions: rat, in vivo
Measured Property: clearance (L/h/kg)
Value expressed in L/h/kg; do not type the unit.

Given item `c1ccc(-n2cnc3cc(-c4ccc(OCCN5CCCCC5)cc4)ccc32)cc1` , the value recorded as its clearance is 0.864

###

Test: Volume distribution of compound was determined as average of four rats at each dose of 5 mg/kg intravenous and 16 mg/kg peroral administration
Type: ADME, organism-based
Settings: rat, in vivo, read-out: Vdss
Measured Property: Vd (L/kg)
Value expressed in L/kg; do not type the unit.

Given item `c1ccc(-n2cnc3cc(-c4ccc(OCCN5CCCCC5)cc4)ccc32)cc1` , the value recorded as its Vd is 1.9
